I'd appreciate it if you could supply Activity values for the items below.
- System: Rattus norvegicus
- experimental-protocol: Antihyperglycemic activity against sucrose-challenged streptozotocin-induced fasted albino Sprague-Dawley rat assessed as reduction in blood glucose at 100 mg/kg, po administered 30 mins before sucrose challenge measured after 24 hrs post sucrose dose
- Type: functional
- Design: scale not given: the % may be the effect or the level left
A number alone suffices; assume %.

### Prompt Record request: Activity value, item C[C@H]1[C@H](C)CC[C@]2(C)CC[C@]3(C)C(=CC[C@@H]4[C@@]5(C)CC[C@H](OC(=O)CNC(=O)c6ccccc6)C(C)(C)[C@@H]5CC[C@]43C)[C@H]12
### Response 12.1

### Prompt Follow-up entry: C[C@H]1[C@H](C)CC[C@]2(C)CC[C@]3(C)C(=CC[C@@H]4[C@@]5(C)CC[C@H](OC(=O)c6ccc([N+](=O)[O-])cc6)C(C)(C)[C@@H]5CC[C@]43C)[C@H]12
### Response 27.6

### Prompt Likewise for C[C@H]1[C@H](C)CC[C@]2(C)CC[C@]3(C)C(=CC[C@@H]4[C@@]5(C)CC[C@H](OC(=O)c6ccc(Cl)cc6)C(C)(C)[C@@H]5CC[C@]43C)[C@H]12 ?
### Response 25.6

----------
- Tested on: Rattus norvegicus
- experimental-protocol: Antihyperglycemic activity against sucrose-challenged streptozotocin-induced fasted albino Sprague-Dawley rat assessed as reduction in blood glucose at 100 mg/kg, po administered 30 mins before sucrose challenge measured after 24 hrs post sucrose dose
- Format: functional
- Design: scale not given: the % may be the effect or the level left
parameter-measured: Activity (%)
Provide only the numeric value, understood in %.

### Prompt Report Activity for CN(C)C(=N)NC(=N)N please.
### Response 26.5

### Prompt And then C[C@H]1[C@H](C)CC[C@]2(C)CC[C@]3(C)C(=CC[C@@H]4[C@@]5(C)CC[C@H](OC(=O)c6ccc7ccccc7n6)C(C)(C)[C@@H]5CC[C@]43C)[C@H]12 , what is it?
### Response 17.8

### Prompt Check C[C@H]1[C@H](C)CC[C@]2(C)CC[C@]3(C)C(=CC[C@@H]4[C@@]5(C)CC[C@H](OC(=O)c6cccnc6)C(C)(C)[C@@H]5CC[C@]43C)[C@H]12 too.
### Response 27.6

### Prompt Again, but for Cc1ccc(C)c(C(=O)O[C@H]2CC[C@]3(C)[C@H]4CC=C5[C@@H]6[C@@H](C)[C@H](C)CC[C@]6(C)CC[C@@]5(C)[C@]4(C)CC[C@H]3C2(C)C)c1
### Response 20.2

### Prompt One more compound: C[C@H]1[C@H](C)CC[C@]2(C)CC[C@]3(C)C(=CC[C@@H]4[C@@]5(C)CC[C@H](OC(=O)CCCC(=O)c6ccccc6)C(C)(C)[C@@H]5CC[C@]43C)[C@H]12
### Response 23.5

### Prompt Also CC(=O)O[C@H]1CC[C@]2(C)[C@H]3CC=C4[C@@H]5[C@@H](C)[C@H](C)CC[C@]5(C)CC[C@@]4(C)[C@]3(C)CC[C@H]2C1(C)C ?
### Response 17

----------
- System: Rattus norvegicus
- experimental-protocol: Antihyperglycemic activity against sucrose-challenged streptozotocin-induced fasted albino Sprague-Dawley rat assessed as reduction in blood glucose at 100 mg/kg, po administered 30 mins before sucrose challenge measured after 24 hrs post sucrose dose
- Type: functional
- Design: scale not given: the % may be the effect or the level left
parameter-measured: Activity (%)
A number alone suffices; assume %.

### Prompt Suppose we examine the compound C[C@H]1[C@H](C)CC[C@]2(C)CC[C@]3(C)C(=CC[C@@H]4[C@@]5(C)CC[C@H](OC(=O)CCC(=O)O[C@H]6CC[C@]7(C)[C@H]8CC=C9[C@@H]%10[C@@H](C)[C@H](C)CC[C@]%10(C)CC[C@@]9(C)[C@]8(C)CC[C@H]7C6(C)C)C(C)(C)[C@@H]5CC[C@]43C)[C@H]12 ; what Activity value has been reported?
### Response 15.6

### Prompt Same again, this time with C/C=C(\C)C(=O)O[C@H]1CC[C@]2(C)[C@H]3CC=C4[C@@H]5[C@@H](C)[C@H](C)CC[C@]5(C)CC[C@@]4(C)[C@]3(C)CC[C@H]2C1(C)C
### Response 22.6

### Prompt Moving on to the next compound: COc1ccc(CC(=O)O[C@H]2CC[C@]3(C)[C@H]4CC=C5[C@@H]6[C@@H](C)[C@H](C)CC[C@]6(C)CC[C@@]5(C)[C@]4(C)CC[C@H]3C2(C)C)cc1
### Response 15.6

### Prompt Same question, C[C@H]1[C@H](C)CC[C@]2(C)CC[C@]3(C)C(=CC[C@@H]4[C@@]5(C)CC[C@H](OC(=O)c6ccccc6C(=O)O)C(C)(C)[C@@H]5CC[C@]43C)[C@H]12 this time
### Response 16.5

### Prompt Please do the same for C[C@H]1[C@H](C)CC[C@]2(C)CC[C@]3(C)C(=CC[C@@H]4[C@@]5(C)CC[C@H](O)C(C)(C)[C@@H]5CC[C@]43C)[C@H]12 as well.
### Response 8.12
